Reference source: ChEMBL document CHEMBL1932993

tested on: KB; assay: Cytotoxicity against human KB cells after 72 hrs ny MTT assay; type: functional, cell-based
pIC50: −log10 of the molar value.
Assignment: determine reported pIC50 for the given compounds.

// each listed compound needs a value for pIC50
1. CCOP(=O)(OCC)C(NC(=O)COc1cccc(C(F)(F)F)c1)c1ccc(OC)cc1 (centres undefined)
2. COP(=O)(OC)C(NC(=O)COc1ccc(Cl)c(C)c1)c1ccc(C)cc1 (centres undefined)
3. COP(=O)(OC)C(NC(=O)COc1ccc(Cl)cc1Cl)c1ccc(C)cc1 (centres undefined)

1: < 4.30; 2: < 4.30; 3: < 4.30

// each listed compound needs a value for pIC50
1. CCOP(=O)(OCC)C(NC(=O)COc1ccc(Cl)cc1C)c1ccc(OC)cc1 (centres undefined)
2. CCOP(=O)(OCC)C(NC(=O)COc1ccc(Cl)cc1Cl)c1ccc(OC)cc1 (centres undefined)
3. CCOP(=O)(OCC)C(NC(=O)COc1ccc(Cl)cc1)c1ccc(OC)cc1 (centres undefined)
4. COc1ccc(C(NC(=O)COc2ccc(Cl)cc2Cl)P(=O)(OC)OC)cc1 (centres undefined)
5. COP(=O)(OC)C(NC(=O)COc1ccc(Cl)cc1Cl)c1ccccc1 (centres undefined)
6. CCCOP(=O)(OCCC)C(NC(=O)COc1ccc(Cl)cc1Cl)c1ccc(OC)cc1 (centres undefined)

< 4.30
< 4.30
< 4.30
< 4.30
< 4.30
4.76

// each listed compound needs a value for pIC50
1. CCCCOP(=O)(OCCCC)C(NC(=O)COc1ccccc1Cl)c1ccc(OC)cc1 (centres undefined)
2. CCOP(=O)(OCC)C(NC(=O)COc1ccc([N+](=O)[O-])cc1)c1ccc(OC)cc1 (centres undefined)
3. CCCCOP(=O)(OCCCC)C(NC(=O)COc1cc(Cl)c(Cl)cc1Cl)c1ccccc1 (centres undefined)

4.84
< 4.30
4.80

// each listed compound needs a value for pIC50
1. CCCCOP(=O)(OCCCC)C(NC(=O)COc1ccc(Cl)c(C)c1)c1ccccc1 (centres undefined)
2. CCCOP(=O)(OCCC)C(NC(=O)COc1cccc(C(F)(F)F)c1)c1ccccc1 (centres undefined)

4.74
4.67
